Where these numbers come from: PubChem BioAssay (NCI)

- MEASUREMENT DESCRIPTION: NCI Yeast Anticancer Drug Screen. Data for the cln2 rad14 strain (AID 165)
- EXPERIMENTAL PARAMETERS: S. cerevisiae cln2 rad14 strain, at 5.0 µM (retest, dose inferred, filed as 0.5), hits give high values
Compounds without any hit were thinned out: in the full panel of roughly 79,000, 15% have a hit.
Decision: growth inhibition >= 10% yields Criterion met, all other cases yield Criterion not met.

{"MOLECULE": "CCSC(=O)/C=C1\\CN(C(=O)OC(C)(C)C)C1C(=O)OC(C)(C)C (centres undefined)", "ANSWER LABEL": "Criterion not met"}
{"MOLECULE": "Cc1ccc(N=Nc2ccc(N)c3ccccc23)c(S(N)(=O)=O)c1", "ANSWER LABEL": "Criterion not met"}
{"MOLECULE": "C/C=C/CSc1cc(NC(=S)c2ccsc2C)ccc1Cl", "ANSWER LABEL": "Criterion not met"}
{"MOLECULE": "CC(=O)N/N=C1/CC[C@@]2(C)C(=CC[C@H]3C4CCC(C(C)CCCC(C)C)[C@@]4(C)CCC32)C1(C)C (some centres undefined)", "ANSWER LABEL": "Criterion not met"}
{"MOLECULE": "[O-][n+]1ccccc1Sc1nc(Sc2cccc[n+]2[O-])nc(Sc2cccc[n+]2[O-])n1", "ANSWER LABEL": "Criterion met"}
{"MOLECULE": "O=C(OCC1CCCO1)N(c1ccccc1)c1ccccc1 (centres undefined)", "ANSWER LABEL": "Criterion met"}
{"MOLECULE": "Oc1cc(CNCc2ccccc2)c(O)c(CNCc2ccccc2)c1", "ANSWER LABEL": "Criterion not met"}
{"MOLECULE": "COc1cc(/C=C2/C(=O)N(C(=O)c3ccccc3O)N=C2C)cc(OC)c1OC", "ANSWER LABEL": "Criterion not met"}
{"MOLECULE": "COc1cccc2c1C(=O)c1c(O)c3c(c(O)c1C2=O)CC(O)(C(C)=O)CC3OC1OC(COC(C)=O)C(OC(C)=O)C(OC(C)=O)C1OC(C)=O (centres undefined)", "ANSWER LABEL": "Criterion not met"}
{"MOLECULE": "CCc1cc(/C=C\\c2ccnc3ccccc23)ccc1N(C)C", "ANSWER LABEL": "Criterion not met"}
{"MOLECULE": "O=C1/C(=C\\c2ccccc2)CN(C(=O)CCN2CCCCC2)C/C1=C/c1ccccc1", "ANSWER LABEL": "Criterion met"}
{"MOLECULE": "O=[N+]([O-])c1ccc(-c2ccc(-c3csc(Nc4ccccc4)n3)o2)cc1", "ANSWER LABEL": "Criterion met"}
{"MOLECULE": "COc1ncnc2nc(SC)[nH]c12", "ANSWER LABEL": "Criterion not met"}
{"MOLECULE": "N#CSCN1C(=O)C2CC=CCC2C1=O (centres undefined)", "ANSWER LABEL": "Criterion not met"}
{"MOLECULE": "CC1=C(C(=O)Nc2cc(C)ccc2C)C(c2cccc([N+](=O)[O-])c2)C(C(=O)Nc2cc(C)ccc2C)=C(C)N1", "ANSWER LABEL": "Criterion not met"}
{"MOLECULE": "CCC[CH2][Sn]([CH2]CCC)([NH]c1ncnc2[nH]cnc12)[NH]c1ncnc2[nH]cnc12", "ANSWER LABEL": "Criterion met"}
{"MOLECULE": "COC(CO)(OC)c1ccccc1", "ANSWER LABEL": "Criterion not met"}
{"MOLECULE": "CC1(C(=O)O)CCC2(C)CCC3(C)C(=CC(=O)C4C5(C)CCC(O)C(C)(C)C5CCC43C)C2C1 (centres undefined)", "ANSWER LABEL": "Criterion met"}
{"MOLECULE": "C/C(=N\\NC(=S)N1CCN(c2ccccc2)CC1)c1nccs1", "ANSWER LABEL": "Criterion met"}
{"MOLECULE": "NS(=O)(=O)c1ccc(NC(=O)Cc2nc3ccccc3s2)cc1", "ANSWER LABEL": "Criterion met"}
{"MOLECULE": "NC(Cc1ccc(O)cc1O)C(=O)O (centres undefined)", "ANSWER LABEL": "Criterion not met"}
{"MOLECULE": "CSC(SC)=C1C(=O)NC(Cc2ccccc2)C1=O (centres undefined)", "ANSWER LABEL": "Criterion not met"}
{"MOLECULE": "N=C1C=CC(=C(c2ccc(N)cc2)c2ccc(N)cc2)C=C1", "ANSWER LABEL": "Criterion not met"}
{"MOLECULE": "CCCCCC/C=C\\CCCCCCCCCc1c(O)c(OC)cc(O)c1CN(C)C", "ANSWER LABEL": "Criterion met"}
{"MOLECULE": "CC(=O)C1C(=O)C=C(C)OC1=O (centres undefined)", "ANSWER LABEL": "Criterion not met"}
{"MOLECULE": "c1ccc(CSc2nnc(SCc3ccccc3)c3[nH]cnc23)cc1", "ANSWER LABEL": "Criterion not met"}
{"MOLECULE": "CCOC(CCCl)OCC", "ANSWER LABEL": "Criterion not met"}
{"MOLECULE": "COc1cccc2c1C(=O)c1c(O)c3c(c(O)c1C2=O)C[C@@](O)(C(C)=O)C[C@@H]3OC1CC([N+]([O-])(Cc2ccccc2)Cc2ccccc2)C(O)C(C)O1 (some centres undefined)", "ANSWER LABEL": "Criterion met"}
{"MOLECULE": "CC1CCC2(CC1)OCC(C)O2 (centres undefined)", "ANSWER LABEL": "Criterion met"}
{"MOLECULE": "O=C1OC2(c3ccc(O)cc3Oc3cc(O)ccc32)c2c1c(-c1ccccc1)c(-c1ccccc1)c(-c1ccccc1)c2-c1ccccc1", "ANSWER LABEL": "Criterion not met"}
{"MOLECULE": "O=C(CC(=O)c1ccccc1)CC(O)(c1ccccc1)c1ccccc1", "ANSWER LABEL": "Criterion met"}
{"MOLECULE": "N#CC(CCCCl)(c1ccccc1)c1ccccc1", "ANSWER LABEL": "Criterion not met"}
{"MOLECULE": "Cc1cccc2c(C(=O)CBr)cc(-c3ccc(Cl)cc3)nc12", "ANSWER LABEL": "Criterion met"}
{"MOLECULE": "O=C(O)c1nc2cc(C(F)(F)F)ccc2nc1Nc1ccc(F)cc1", "ANSWER LABEL": "Criterion met"}
{"MOLECULE": "COC1=C(Br)C(=O)N/C1=C(\\OC)c1ccccc1", "ANSWER LABEL": "Criterion not met"}
{"MOLECULE": "Oc1ccc2ccccc2c1.[Cu+2]", "ANSWER LABEL": "Criterion not met"}
{"MOLECULE": "O=C(Nc1ccc2c(c1)Cc1cc([N+](=O)[O-])c(F)cc1-2)C(F)(F)F", "ANSWER LABEL": "Criterion not met"}
{"MOLECULE": "Cc1ccc(C(=O)C(CCC#N)(CCC#N)CCC#N)cc1", "ANSWER LABEL": "Criterion not met"}
{"MOLECULE": "C=C1CC/C=C(/C(=O)O)CC[C@H]2[C@@H]1CC2(C)C", "ANSWER LABEL": "Criterion not met"}
{"MOLECULE": "O=c1sc(=S)[nH]c2ccccc12", "ANSWER LABEL": "Criterion not met"}
{"MOLECULE": "O=C(N/C(=C\\c1cccc([N+](=O)[O-])c1)c1nc2ccccc2s1)c1ccccc1", "ANSWER LABEL": "Criterion met"}
{"MOLECULE": "Cc1ccc(C)c(NC(=O)CCC(=O)CC(=O)c2ccncc2)c1", "ANSWER LABEL": "Criterion not met"}
{"MOLECULE": "Cc1ccc2ccc3c(CCN(C)C)cc4c(c3c2c1O)OCO4", "ANSWER LABEL": "Criterion not met"}
{"MOLECULE": "COc1ccc(N)c([N+](=O)[O-])c1", "ANSWER LABEL": "Criterion not met"}
